# Subject Of Test: T1, (D3)1d/2c scFv
# T1 construct: also called nonpathogenic PV mAb
# Assay Details: ELISA inhibition, monoclonal peptide phage preincubated with PV scFv, Dsg plate (Dsg3 by paragraph 281)
Where no end group is shown, it is not given here.
Experimental Endpoint: percent inhibition

{"Binder": "YSNKTPHLQWRL (peptide, not shown: large carriers, also: displayed on phage, fused to pIII coat protein, linker not given here, Monoclonal phage clone; tested as phage particle) [P7 peptide phage]", "Data Value": "9%"}
{"Binder": "TTLTLRH (peptide, not shown: large carriers, also: displayed on phage, fused to pIII, Monoclonal phage clone; tested as phage particle) [P14 peptide phage]", "Data Value": "8%"}
{"Binder": "DLNYFTLSSKRE (peptide, not shown: large carriers, also: displayed on phage, fused to pIII coat protein, linker not given here, Control phage clone; tested as phage particle; also called control phage) [control peptide phage displaying a non-consensus sequence]", "Data Value": "8%"}
{"Binder": "ANKTSPFLMWRL (peptide, not shown: large carriers, also: displayed on phage, fused to pIII, Monoclonal phage clone from round 3 of screening with (D31)2/29 IgG; tested as phage particle) [P4 peptide phage]", "Data Value": "14%"}

Where do the numbers come from? From patent US20100135948A1.
